# Tested on: adjuvant arthritis
# Experimental protocol: Rat adjuvant arthritis (AA) animal model
# Format: in vivo, SD rats
# Experimental conditions: 4.0 mg/kg, intravenous in the tail once every five days from day 10, mean±SD
Peptide text beside a SMILES is read from it. * marks the point of attachment. X74 = O=C1C=CC(=O)N1c1cccc(CCCCCCCCCCC(=O)*)c1; X55 = O=C1C=CC(=O)N1c1ccccc1CCCCCCCCC(=O)*
For each entry below, report its Left and right paw swelling degree value.
Report the value in mm with no unit label.

Q. Return reported Left and right paw swelling degree. Input compound: C[C@H](NC(=O)CNC(=O)[C@H](CCCNC(=N)N)NC(=O)CCCCCCCCCCc1cccc(N2C(=O)C=CC2=O)c1)C(=O)N[C@@H](CC(=O)O)C(=O)N[C@@H](CCCNC(=N)N)C(=O)N[C@@H](C)C(=O)NCC(=O)NCC(=O)NCC(=O)NCC(=O)N[C@@H](CCCNC(=N)N)C(=O)NCC(=O)N[C@@H](CC(=O)O)C(=O)O [X34] (X74-RGADRAGGGGRGD-OH)
A. 3.84

Q. Provide one value: measured Left and right paw swelling degree of C[C@H](NC(=O)CNC(=O)[C@H](CCCNC(=N)N)NC(=O)CCCCCCCCc1ccccc1N1C(=O)C=CC1=O)C(=O)N[C@@H](CC(=O)O)C(=O)N[C@@H](CCCNC(=N)N)C(=O)N[C@@H](C)C(=O)NCC(=O)NCC(=O)NCC(=O)NCC(=O)N[C@@H](CCCNC(=N)N)C(=O)NCC(=O)N[C@@H](CC(=O)O)C(=O)O [X20] (X55-RGADRAGGGGRGD-OH)
A. 3.87

src = patent US20200270309A1
